Biological target: Human BCL-XL protein (N-terminal HiBiT tagged BCL-XL in HT1080 cells) (Homo sapiens, UniProt Q07817)
Construct: expressed in transfected cells; host or cells: HT-1080 (ATCC CCL-121), stably transduced with lentivirus pLV-UBC-N-HiBiT-BCL-XL-PGK-puro and selected with puromycin
Sequence (Q07817 whole entry): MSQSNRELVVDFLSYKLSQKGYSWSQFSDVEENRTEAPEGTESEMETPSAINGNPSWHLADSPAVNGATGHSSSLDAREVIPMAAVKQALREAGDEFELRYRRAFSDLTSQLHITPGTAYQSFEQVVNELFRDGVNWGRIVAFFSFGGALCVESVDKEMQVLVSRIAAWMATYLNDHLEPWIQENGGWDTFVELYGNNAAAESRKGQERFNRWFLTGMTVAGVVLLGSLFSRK
Assay: HiBiT based degradation assay
Type: cell-based
Conditions: BCL-XL degradation normalized with DMSO control; HT1080 cells expressing HiBiT-BCL-XL; 24 h
parameter_measured: Ymin (24 h)

[[record]]
compound = "Cc1c(OCCCC[C@@H]2CCCN(CC(=O)Nc3cccc4c(C5CCC(=O)NC5=O)nn(C)c34)C2)cccc1-c1ccc(N2CCc3cccc(C(=O)Nc4nc5ccccc5s4)c3C2)nc1C(=O)O (stereo partly drawn) [Compound 186a]"
reported_measurement = "B (50% ≤ Ymin < 70%)"

[[record]]
compound = "Cc1c(Oc2ccc(CCN3CCN(c4cccc5c(C6CCC(=O)NC6=O)nn(C)c45)CC3)cc2)cccc1-c1ccc(N2CCc3cccc(C(=O)Nc4nc5ccccc5s4)c3C2)nc1C(=O)O (stereo not drawn)"
reported_measurement = "B (50% ≤ Ymin < 70%)"

[[record]]
compound = "Cc1c(O[C@H]2CC[C@H](CCCCN3CCN(c4ccc5c(C6CCC(=O)NC6=O)nn(C)c5c4)C[C@H]3C)CC2)cccc1-c1ccc(N2CCc3cccc(C(=O)Nc4nc5ccccc5s4)c3C2)nc1C(=O)O (stereo partly drawn) [Compound 297a]"
reported_measurement = "A (Ymin < 50%)"

[[record]]
compound = "Cc1c(O[C@H]2CC[C@H](CC[C@H](C)CN3CCN(c4ccc5c(C6CCC(=O)NC6=O)nn(C)c5c4)CC3)CC2)cccc1-c1ccc(N2CCc3cccc(C(=O)Nc4nc5ccccc5s4)c3C2)nc1C(=O)O (single isomer, unassigned) [Compound 308b]"
reported_measurement = "A (Ymin < 50%)"

[[record]]
compound = "Cc1c(OCCCN2CCN(CC3CCN(c4ccc5c(C6CCC(=O)NC6=O)nn(C)c5c4)CC3)CC2)cccc1-c1ccc(N2CCc3cccc(C(=O)Nc4nc5ccccc5s4)c3C2)nc1C(=O)O (stereo not drawn)"
reported_measurement = "A (Ymin < 50%)"

[[record]]
compound = "Cc1c(OCC[C@H]2CCCN(CC(=O)Nc3ccc4c(C5CCC(=O)NC5=O)nn(C)c4c3)C2)cccc1-c1ccc(N2CCc3cccc(C(=O)Nc4nc5ccccc5s4)c3C2)nc1C(=O)O (stereo partly drawn) [Compound 180b]"
reported_measurement = "B (50% ≤ Ymin < 70%)"

[[record]]
compound = "Cc1c(OCCCCN2CCC(CN3CCN(c4ccc5c(C6CCC(=O)NC6=O)nn(C)c5c4)CC3)CC2)cccc1-c1ccc(N2CCc3cccc(C(=O)Nc4nc5ccccc5s4)c3C2)nc1C(=O)O (stereo not drawn)"
reported_measurement = "A (Ymin < 50%)"

[[record]]
compound = "Cc1c(OCCO[C@H]2C[C@H]3CC[C@@H](C2)N3CC(=O)Nc2ccc3c(C4CCC(=O)NC4=O)nn(C)c3c2)cccc1-c1ccc(N2CCc3cccc(C(=O)Nc4nc5ccccc5s4)c3C2)nc1C(=O)O (stereo partly drawn) [Compound 174a]"
reported_measurement = "A (Ymin < 50%)"

[[record]]
compound = "Cc1c(OCCC[C@@H]2CCCN(CC(=O)Nc3cccc4c(C5CCC(=O)NC5=O)nn(C)c34)C2)cccc1-c1ccc(N2CCc3cccc(C(=O)Nc4nc5ccccc5s4)c3C2)nc1C(=O)O (single isomer, unassigned) [Compound 210a]"
reported_measurement = "B (50% ≤ Ymin < 70%)"

[[record]]
compound = "Cc1c(O[C@H]2CC[C@H](CCCN3CCN(c4cccc5c(C6CCC(=O)NC6=O)nn(C)c45)CC3)CC2)cccc1-c1ccc(N2CCc3cccc(C(=O)Nc4nc5ccccc5s4)c3C2)nc1C(=O)O (stereo partly drawn) [Compound 147a]"
reported_measurement = "A (Ymin < 50%)"


## Input Could you tell me which Ymin (24 h) is on file for Cc1c(OCCCC2CCN(CC3CN(c4ccc5c(C6CCC(=O)NC6=O)nn(C)c5c4)C3)CC2)cccc1-c1ccc(N2CCc3cccc(C(=O)Nc4nc5ccccc5s4)c3C2)nc1C(=O)O (stereo not drawn) ?
## Output A (Ymin < 50%)

## Input Could you tell me which Ymin (24 h) is on file for Cc1c(OCCCC[C@H]2CCCN(CC(=O)Nc3ccc4c(C5CCC(=O)NC5=O)nn(C)c4c3)C2)cccc1-c1ccc(N2CCc3cccc(C(=O)Nc4nc5ccccc5s4)c3C2)nc1C(=O)O (stereo partly drawn) [Compound 202a] ?
## Output A (Ymin < 50%)

## Input Could you tell me which Ymin (24 h) is on file for Cc1cc(OCCCN2CCN(CC(=O)Nc3ccc4c(C5CCC(=O)NC5=O)nn(C)c4c3)CC2)ccc1-c1ccc(N2CCc3cccc(C(=O)Nc4nc5ccccc5s4)c3C2)nc1C(=O)O (stereo not drawn) ?
## Output A (Ymin < 50%)

## Input Could you tell me which Ymin (24 h) is on file for Cc1c(O[C@H]2CC[C@H](CC[C@@H](C)N3CCN(c4cccc5c(C6CCC(=O)NC6=O)nn(C)c45)CC3)CC2)cccc1-c1ccc(N2CCc3cccc(C(=O)Nc4nc5ccccc5s4)c3C2)nc1C(=O)O (single isomer, unassigned) [Compound 283b] ?
## Output A (Ymin < 50%)

## Input Could you tell me which Ymin (24 h) is on file for Cc1c(OCCCC2CCN(CC3CCN(c4cccc5c(C6CCC(=O)NC6=O)nn(C)c45)CC3)CC2)cccc1-c1ccc(N2CCc3cccc(C(=O)Nc4nc5ccccc5s4)c3C2)nc1C(=O)O (stereo not drawn) ?
## Output A (Ymin < 50%)

----------
Target: Human BCL-XL protein (N-terminal HiBiT tagged BCL-XL in HT1080 cells) (Homo sapiens, UniProt Q07817)
Construct: expressed in transfected cells; host or cells: HT-1080 (ATCC CCL-121), stably transduced with lentivirus pLV-UBC-N-HiBiT-BCL-XL-PGK-puro and selected with puromycin
Test: HiBiT based degradation assay
Type: cell-based
Settings: BCL-XL degradation normalized with DMSO control; HT1080 cells expressing HiBiT-BCL-XL; 24 h
parameter_measured: Ymin (24 h)

[[record]]
molecule = "Cc1c(O[C@H]2CC[C@H](CCC(C)(C)N3CCN(c4ccc5c(C6CCC(=O)NC6=O)nn(C)c5c4)CC3)CC2)cccc1-c1ccc(N2CCc3cccc(C(=O)Nc4nc5ccccc5s4)c3C2)nc1C(=O)O (stereo partly drawn) [Compound 340a]"
reported_measurement = "A (Ymin < 50%)"

[[record]]
molecule = "Cc1c(OCCC[C@H]2CCN(CC(=O)Nc3ccc4c(C5CCC(=O)NC5=O)nn(C)c4c3)C2)cccc1-c1ccc(N2CCc3cccc(C(=O)Nc4nc5ccccc5s4)c3C2)nc1C(=O)O (stereo partly drawn) [Compound 160b]"
reported_measurement = "A (Ymin < 50%)"


----------
Biological target: Human BCL-XL protein (N-terminal HiBiT tagged BCL-XL in HT1080 cells) (Homo sapiens, UniProt Q07817)
Construct: expressed in transfected cells; host or cells: HT-1080 (ATCC CCL-121), stably transduced with lentivirus pLV-UBC-N-HiBiT-BCL-XL-PGK-puro and selected with puromycin
Experiment: HiBiT based degradation assay
Format: cell-based
Conditions: BCL-XL degradation; HT1080 cells expressing HiBiT-BCL-XL; 24 h; read-out: EC50 (24 h)
Listed here: items and their measured DC50.

Answered examples (2):
[[record]]
compound = "Cc1c(OCCCC2CC3(C2)CN(CC(=O)Nc2ccc4c(C5CCC(=O)NC5=O)nn(C)c4c2)C3)cccc1-c1ccc(N2CCc3cccc(C(=O)Nc4nc5ccccc5s4)c3C2)nc1C(=O)O (centres unmarked)"
parameter_measured = "DC50"
reported_measurement = "< 0.1 µM"

[[record]]
compound = "Cc1c(O[C@H]2CC[C@H](CCC(=O)N3CCN(c4ccc5c(C6CCC(=O)NC6=O)nn(C)c5c4)CC3)CC2)cccc1-c1ccc(N2CCc3cccc(C(=O)Nc4nc5ccccc5s4)c3C2)nc1C(=O)O (some centres unmarked) [Compound 138a]"
parameter_measured = "DC50"
reported_measurement = "< 0.1 µM"


## Input Could you tell me which DC50 is on file for Cc1c(Oc2ccc(CCCC(=O)Nc3ccc4c(C5CCC(=O)NC5=O)nn(C)c4c3)cc2)cccc1-c1ccc(N2CCc3cccc(C(=O)Nc4nc5ccccc5s4)c3C2)nc1C(=O)O (centres unmarked) ?
## Output 0.1 to 1 µM

## Input Could you tell me which DC50 is on file for Cc1cc(OCC[C@H](C)C2CCN(CC(=O)Nc3ccc4c(C5CCC(=O)NC5=O)nn(C)c4c3)CC2)ccc1-c1ccc(N2CCc3cccc(C(=O)Nc4nc5ccccc5s4)c3C2)nc1C(=O)O (single isomer, unassigned) [Compound 266b] ?
## Output < 0.1 µM

## Input Could you tell me which DC50 is on file for Cc1c(O[C@H]2CC[C@H](CCCCN3CCC(c4cccc5c(C6CCC(=O)NC6=O)nn(C)c45)CC3)CC2)cccc1-c1ccc(N2CCc3cccc(C(=O)Nc4nc5ccccc5s4)c3C2)nc1C(=O)O (some centres unmarked) [Compound 298a] ?
## Output < 0.1 µM
